assayExplanation: gradient 5% acetonitrile 3 min, to 50% in 2 min, to 85% in 15 min, held 3 min, 100 µL/min
condition: column: Zorbax Extend-C18 2.1 x 50 mm; eluents: water / acetonitrile, 0.1% formic acid
measurementKind: RP-LC retention time (s)

> print(dat)
                                    compound  uom  reportedresult
 1  CC(=O)NC(CCS(C)(=O)=O)C(=O)Nc1ccc(-c2nc3ccc(C)cc3s2)cc1 (centres undefined)    s             741
 2  COc1ccc(NC(=O)Cn2c(=O)c3cc(C4CC4)nn3c3ncccc32)c(OC)c1    s             772
 3  Cc1ccc(NC(=O)C2(C)Oc3cccnc3NC2=O)cc1F (centres undefined)    s             755
 4  Cc1cc(C)cc(Oc2nccn3c(=O)n(CC(=O)Nc4cccc(C(C)C)c4)nc23)c1    s            1080
 5  CC(C)N1C(=O)C(C)(C(=O)Nc2cccc(F)c2)Oc2cccnc21 (centres undefined)    s            1020
 6                 CCNC(=O)c1cc(C(C)C)[nH]n1    s             618
 7  O=C(Cn1cccc1-c1nnc(-c2ccccc2)o1)NCCc1ccccc1    s             950
 8  CC(C)(C)CC(=O)N1C[C@H]2C[C@H](C1)[C@H]1CCCC(=O)N1C2    s             654
 9  CCOC(=O)c1[nH]c(C)c(C(=O)N2CCC(CC(=O)NC3CCCCC3)CC2)c1C    s             719
10  CCN(CC)C(=O)Cn1nc2cc(-c3ccc(OC)cc3)nc(C)n2c1=O    s             842
11  CCOC(=O)N1CCN(c2nc(F)c(F)c(S(=O)(=O)CCN3C(=O)CCC3=O)c2F)CC1    s             836
12  CCOC(=O)c1c(S(=O)(=O)N2CCC(C(=O)Nc3cccc(CC)c3)CC2)c(C)n(CC)c1C    s             984
13  CCOC(=O)c1c(S(=O)(=O)N2CCC(C(=O)Nc3ccc(Cl)cc3)CC2)c(C)n(C)c1C    s             913
14  COc1cc(OC)c(NC(=O)CCSc2nc3c(=O)n(C)c(=O)n(C)c3n2C)cc1Cl    s             735
15  Cc1nc2ccccc2c(=O)n1Cc1noc(-c2cccc(Cl)c2)n1    s             913
16  COc1ccc(-c2c(NC(=O)c3cccs3)n(C)c3ccccc3c2=O)cc1    s             668
17  CCS(=O)(=O)N1CCc2ccc(NC(=O)c3ccco3)cc2C1    s             682
18  Cc1nn(-c2ccccc2)c(C)c1S(=O)(=O)N1CCN(c2ccccn2)CC1    s             664
19  COc1cccc(NC(=O)C2CCN(C(=O)C3Sc4ccccc4NC3=O)CC2)c1 (centres undefined)    s             752
20  c1coc(-c2nc(-c3ccc4c(c3)nnn4CCN3CCCCC3)no2)c1    s             652
21  Cc1cc(N2CCN(c3ccccn3)CC2)n2nc(C)c(-c3ccc(F)cc3)c2n1    s             664
22  Cn1c(-c2ccccc2)nn(CCNC(=O)C2COc3ccccc3O2)c1=O (centres undefined)    s             702
23  O=C(Cn1cccc1-c1nnc(-c2ccccc2)o1)N1CCC2(CC1)OCCO2    s             834
24  CCCn1cnc2cc(CNC(=O)c3ccc(-n4c(C)ccc4C)cc3)ccc21    s             722
25  O=S(=O)(CCc1noc(-c2nccc3ccccc23)n1)c1ccccc1    s             890
26    CC(=O)Nc1ccc(OC(=O)c2ccccc2OC(C)=O)cc1    s             853
27   Cc1ccc(Cl)cc1NC(=O)N1CCC(c2cc(N)on2)CC1    s             736
28  CC(C)(C)C(=O)Nc1ccc(SCc2nnc(-c3ccc4c(c3)OCO4)o2)cc1    s             945
29  Cc1noc([C@@H]2CC(F)(F)CN2C(=O)c2occc2C)n1    s             756
30  Cc1ccccc1-c1csc(Cc2nc(-c3ccc(Cl)cc3)no2)n1    s            1330
31  O=C(CSc1ccc(N2CCCC(C(=O)NC3CC3)C2)nn1)Nc1cccc(Br)c1 (centres undefined)    s             664
32    O=C(Nc1cc(Cl)cc(Cl)c1)N1CCc2nc[nH]c2C1    s             642
33  COC[C@@H]1CN(Cc2cccc(C#N)c2)C[C@H]1c1ccccn1    s             608
34    O=C(Nc1ccc(-c2nnc3n2CCCC3)cc1)C1CCCCC1    s             699
35  CCN1CCc2nc(NC(=O)C3CCN(S(=O)(=O)c4cccs4)CC3)sc2C1    s             634
36  CCn1c(=O)c(C(=O)Nc2cccc(SC)c2)c(O)c2sccc21    s            1290
37  CCN1CCN(C(=O)CN2C(=O)COc3ccc(C(=O)N4CCCC4)cc32)CC1    s             571
38  COc1ccc(N2CCN(c3nc(C(=O)NCC4CCCO4)cs3)CC2)cc1 (centres undefined)    s             821
39  Cc1ccc(OCC(O)CN2CCN(c3ccccc3)CC2)cc1C (centres undefined)    s             726
